Each entry below carries its recorded Kcat (rate constant ES → E + P).
Molecular target: M. tuberculosis lumazine synthase (recombinant homopentameric) (Mycobacterium tuberculosis, UniProt P9WHE9)
Sequence (P9WHE9 whole entry): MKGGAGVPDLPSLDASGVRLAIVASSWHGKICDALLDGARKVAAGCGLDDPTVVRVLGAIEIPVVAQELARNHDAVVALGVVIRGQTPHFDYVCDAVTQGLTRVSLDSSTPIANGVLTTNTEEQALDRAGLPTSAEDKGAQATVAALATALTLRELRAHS
Format: biochemical
Details: pH 7

The following compounds have reported results that may help.
[[record]]
compound = "COC(=O)C(=O)Nc1c(OC[C@H](O)[C@H](O)[C@H](O)CO)[nH]c(=O)[nH]c1=O [Compound 37]"
measured_attribute = "Kcat (rate constant ES → E + P)"
result = "0.18 ± 0.00 m^−1"

[[record]]
compound = "Nc1c(OC[C@@H](O)[C@H](O)[C@@H](O)CO)[nH]c(=O)[nH]c1=O [Compound 29]"
measured_attribute = "Kcat (rate constant ES → E + P)"
result = "0.18 ± 0.01 m^−1"

[[record]]
compound = "CCOC(=O)C(=O)Nc1c(OC[C@H](O)[C@H](O)[C@H](O)CO)[nH]c(=O)[nH]c1=O [Compound 36]"
measured_attribute = "Kcat (rate constant ES → E + P)"
result = "0.26 ± 0.01 m^−1"

[[record]]
compound = "O=c1[nH]c(OC[C@H](O)[C@H](O)[C@H](O)CO)c([N+](=O)[O-])c(=O)[nH]1 [Compound 22]"
measured_attribute = "Kcat (rate constant ES → E + P)"
result = "0.19 ± 0.00 m^−1"

[[record]]
compound = "CCC(=O)Nc1c(OC[C@H](O)[C@H](O)[C@H](O)CO)[nH]c(=O)[nH]c1=O [Compound 43]"
measured_attribute = "Kcat (rate constant ES → E + P)"
result = "0.39 ± 0.00 m^−1"


Give the value of Kcat (rate constant ES → E + P) reported for the following: CC(C)C(=O)Nc1c(OC[C@H](O)[C@H](O)[C@H](O)CO)[nH]c(=O)[nH]c1=O [Compound 40] 0.59 ± 0.01 m^−1

====

Each entry below carries its recorded Kcat (rate constant ES → E + P).
Target: M. tuberculosis riboflavin synthase (recombinant) (Mycobacterium tuberculosis, UniProt P9WK35)
Sequence (P9WK35 whole entry): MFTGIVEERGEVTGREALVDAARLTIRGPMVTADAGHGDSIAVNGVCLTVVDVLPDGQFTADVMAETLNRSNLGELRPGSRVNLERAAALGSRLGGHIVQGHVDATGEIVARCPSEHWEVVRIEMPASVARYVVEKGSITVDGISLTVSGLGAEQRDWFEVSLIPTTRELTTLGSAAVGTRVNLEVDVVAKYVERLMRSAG
Test: Kinetic assay of riboflavin synthase inhibitors, M. tuberculosis enzyme
Type: biochemical
Details: substrate 3 varied; Tris·HCl pH 7.0
All answers are understood in m^−1, so give the number only.

[[record]]
compound = "CC(Cl)C(=O)Nc1c(NC[C@H](O)[C@H](O)[C@H](O)CO)[nH]c(=O)[nH]c1=O (some centres unmarked) [Compound 60]"
result = 0.72

[[record]]
compound = "C=C(C)C(=O)Nc1c(Cl)[nH]c(=O)[nH]c1=O [Compound 78]"
result = 0.58

[[record]]
compound = "CCC(=O)Nc1c(OC[C@H](O)[C@H](O)[C@H](O)CO)[nH]c(=O)[nH]c1=O [Compound 43]"
result = 0.21

[[record]]
compound = "CC(C)C(=O)Nc1c(OC[C@H](O)[C@H](O)[C@H](O)CO)[nH]c(=O)[nH]c1=O [Compound 40]"
result = 0.84

[[record]]
compound = "C=C(C)C(=O)Nc1c(OC[C@H](O)[C@H](O)[C@H](O)CO)[nH]c(=O)[nH]c1=O [Compound 46]"
result = 0.58

[[record]]
compound = "O=C(CCl)Nc1c(NC[C@H](O)[C@H](O)[C@H](O)CO)[nH]c(=O)[nH]c1=O [Compound 63]"
result = 0.66

[[record]]
compound = "C=C(C)C(=O)Nc1c(SC[C@H](O)[C@H](O)[C@H](O)CO)[nH]c(=O)[nH]c1=O [Compound 51]"
result = 0.84


The record that follows has no Kcat (rate constant ES → E + P) shown yet.
Give the value of Kcat (rate constant ES → E + P) reported for the following: C=C(C)C(=O)Nc1c(NC[C@H](O)[C@H](O)[C@H](O)CO)[nH]c(=O)[nH]c1=O [Compound 56] 0.57
